Data origin: patent US20080318949A1

Answer each item with its documented PDE6 IC50/PDE5 IC50.
Target: PDE6 from bovine retina (Bos taurus, UniProt P11541+P23439)
Construct: the PDE6 was isolated form bovine retinas; from tissue; host or cells: bovine retina
Sequence (P11541 2-856 limits assumed): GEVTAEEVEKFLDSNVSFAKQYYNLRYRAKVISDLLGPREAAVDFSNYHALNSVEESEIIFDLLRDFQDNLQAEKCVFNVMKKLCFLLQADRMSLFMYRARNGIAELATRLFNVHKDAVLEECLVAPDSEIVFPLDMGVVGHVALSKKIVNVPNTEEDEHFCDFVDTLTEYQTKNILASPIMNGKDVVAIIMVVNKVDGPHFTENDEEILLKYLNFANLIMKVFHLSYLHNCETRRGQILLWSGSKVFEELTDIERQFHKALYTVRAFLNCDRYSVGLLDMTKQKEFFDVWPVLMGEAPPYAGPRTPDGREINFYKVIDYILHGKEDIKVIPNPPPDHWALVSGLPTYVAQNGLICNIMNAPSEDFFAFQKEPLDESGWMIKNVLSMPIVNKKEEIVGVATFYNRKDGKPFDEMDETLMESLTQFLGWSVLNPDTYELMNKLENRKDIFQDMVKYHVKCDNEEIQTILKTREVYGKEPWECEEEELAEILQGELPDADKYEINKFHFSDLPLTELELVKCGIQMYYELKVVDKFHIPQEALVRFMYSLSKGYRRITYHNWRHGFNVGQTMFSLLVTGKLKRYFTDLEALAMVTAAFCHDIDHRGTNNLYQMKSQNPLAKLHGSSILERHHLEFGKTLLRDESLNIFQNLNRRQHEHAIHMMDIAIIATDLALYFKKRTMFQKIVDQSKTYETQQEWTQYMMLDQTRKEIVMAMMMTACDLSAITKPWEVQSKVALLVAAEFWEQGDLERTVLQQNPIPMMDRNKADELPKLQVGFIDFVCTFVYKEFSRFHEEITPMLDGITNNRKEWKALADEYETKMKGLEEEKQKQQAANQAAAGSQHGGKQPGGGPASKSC
Sequence (P23439 2-850 limits assumed): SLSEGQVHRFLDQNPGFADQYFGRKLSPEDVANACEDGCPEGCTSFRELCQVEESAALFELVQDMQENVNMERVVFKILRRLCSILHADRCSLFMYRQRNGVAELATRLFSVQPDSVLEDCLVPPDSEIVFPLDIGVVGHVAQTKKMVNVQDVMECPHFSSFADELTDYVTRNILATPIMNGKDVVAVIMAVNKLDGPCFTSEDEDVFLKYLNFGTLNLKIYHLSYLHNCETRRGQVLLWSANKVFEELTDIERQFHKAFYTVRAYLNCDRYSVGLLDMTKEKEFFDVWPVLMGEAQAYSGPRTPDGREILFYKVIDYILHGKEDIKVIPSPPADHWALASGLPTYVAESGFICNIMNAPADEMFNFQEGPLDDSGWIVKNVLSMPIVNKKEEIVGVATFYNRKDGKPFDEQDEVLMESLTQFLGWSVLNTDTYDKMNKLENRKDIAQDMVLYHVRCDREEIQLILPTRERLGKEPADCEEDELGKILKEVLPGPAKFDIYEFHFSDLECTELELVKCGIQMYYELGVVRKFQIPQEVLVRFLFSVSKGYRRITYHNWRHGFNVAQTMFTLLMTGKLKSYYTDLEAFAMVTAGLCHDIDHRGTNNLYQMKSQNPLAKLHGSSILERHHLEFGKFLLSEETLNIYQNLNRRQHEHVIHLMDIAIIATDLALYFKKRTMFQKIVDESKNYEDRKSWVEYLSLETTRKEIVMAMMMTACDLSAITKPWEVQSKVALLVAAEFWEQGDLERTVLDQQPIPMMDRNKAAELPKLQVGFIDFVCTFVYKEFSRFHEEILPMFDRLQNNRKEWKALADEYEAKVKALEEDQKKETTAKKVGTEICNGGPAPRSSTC
Assay: PDE6 inhibitory activity test (scintillation proximity assay)
Assay type: biochemical
Conditions: selectivity of PDE5 versus PDE6
Answers are plain numbers.

Example entries and their recorded answers appear below.
| STRUCTURE STRING | PDE6 IC50/PDE5 IC50 |
| --- | --- |
| CCCc1nn(C)c2c(=O)[nH]c(-c3cc(S(=O)(=O)N(CCOC(=O)c4cccnc4)CCOC(=O)c4cccnc4)ccc3OCC)nc12 | 131 |
| CCCOc1ccc(S(=O)(=O)N(CCOC(C)=O)CCN2CCOCC2)cc1-c1nc2c(CCC)nn(C)c2c(=O)[nH]1 | 57.7 |
| CCCOc1ccc(S(=O)(=O)N(CCOC(C)=O)CCOC(C)=O)cc1-c1nc2c(CCC)nn(C)c2c(=O)[nH]1 | 210 |
| CCCOc1ccc(S(=O)(=O)N(CCCOC)CCCOC(C)=O)cc1-c1nc2c(CCC)nn(C)c2c(=O)[nH]1 | 37.6 |
| CCCOc1ccc(S(=O)(=O)N(CCN2CCCC2)Cc2cccnc2)cc1-c1nc2c(CCC)nn(C)c2c(=O)[nH]1 | 27.4 |

Return reported PDE6 IC50/PDE5 IC50 values for all items listed beneath this line.
1. CCCOc1ccc(S(=O)(=O)N(CCCO)CCCOC(C)=O)cc1-c1nc2c(CCC)nn(C)c2c(=O)[nH]1
2. CCCOc1ccc(S(=O)(=O)N(CCN2CCOCC2)Cc2ccccc2)cc1-c1nc2c(CCC)nn(C)c2c(=O)[nH]1

## Result
1: 66.0; 2: 65.6

###

Exercise: state measured pIC50 for each of the compounds provided.
Biological target: UniProt:Q14432
Sequence (Q14432 whole entry): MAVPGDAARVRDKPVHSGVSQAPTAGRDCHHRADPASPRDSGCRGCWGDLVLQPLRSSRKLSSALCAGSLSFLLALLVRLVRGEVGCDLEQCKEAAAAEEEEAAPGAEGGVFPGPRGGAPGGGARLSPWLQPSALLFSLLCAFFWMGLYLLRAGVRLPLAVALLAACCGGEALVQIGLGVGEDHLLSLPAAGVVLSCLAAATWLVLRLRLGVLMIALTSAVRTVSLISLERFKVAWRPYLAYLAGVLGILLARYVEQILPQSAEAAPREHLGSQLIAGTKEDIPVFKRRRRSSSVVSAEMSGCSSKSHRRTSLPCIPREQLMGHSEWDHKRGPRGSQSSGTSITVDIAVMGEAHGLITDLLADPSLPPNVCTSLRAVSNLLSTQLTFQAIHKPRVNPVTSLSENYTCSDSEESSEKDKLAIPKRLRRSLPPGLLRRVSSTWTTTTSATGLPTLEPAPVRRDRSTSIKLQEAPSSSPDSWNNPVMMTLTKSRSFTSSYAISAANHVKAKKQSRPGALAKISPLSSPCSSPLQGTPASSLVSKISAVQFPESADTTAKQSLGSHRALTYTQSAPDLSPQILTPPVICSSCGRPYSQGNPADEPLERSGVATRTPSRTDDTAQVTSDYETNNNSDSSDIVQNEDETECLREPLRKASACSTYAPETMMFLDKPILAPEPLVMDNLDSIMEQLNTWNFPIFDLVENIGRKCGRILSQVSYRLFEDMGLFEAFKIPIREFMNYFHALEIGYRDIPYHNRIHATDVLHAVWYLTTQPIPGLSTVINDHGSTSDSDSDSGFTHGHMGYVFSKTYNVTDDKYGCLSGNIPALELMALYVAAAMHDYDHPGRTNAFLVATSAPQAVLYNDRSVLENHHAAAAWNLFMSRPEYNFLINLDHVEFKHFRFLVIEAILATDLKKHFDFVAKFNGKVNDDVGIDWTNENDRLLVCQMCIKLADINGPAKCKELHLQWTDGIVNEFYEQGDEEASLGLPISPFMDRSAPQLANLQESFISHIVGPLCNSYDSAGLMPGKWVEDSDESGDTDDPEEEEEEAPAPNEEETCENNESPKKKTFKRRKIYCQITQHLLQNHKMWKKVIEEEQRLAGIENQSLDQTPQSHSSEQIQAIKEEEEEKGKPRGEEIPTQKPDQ
Test: PDE3 inhibitory activity test (scintillation proximity assay)
Details: PDE3 isolated from human platelets
Protocol: The PDE5 and PDE3 were isolated form human platelets, while the PDE6 was isolated form bovine retinas. […] Shook for 20 minutes and settled for 30 minutes in the dark, then counted on a BECKMAN LS6500 MULTI-PURPOSE SCINTILLATION COUNTER. The IC50 value for the compounds according the present invention was calculated according the counts. […]
Give bare numbers, as −log10 of the molar value.

| STRUCTURE STRING | SYSTEM NAME | RECORDED RESULT |
| --- | --- | --- |
| CCCOc1ccc(S(=O)(=O)N(CCOC(C)=O)CCN2CCOCC2)cc1-c1nc2c(CCC)nn(C)c2c(=O)[nH]1 | UniProt:Q14432 | 4.91 |

Batch: pIC50 for all items listed.
1. CCCOc1ccc(S(=O)(=O)N(CC)CCCOC(C)=O)cc1-c1nc2c(CCC)nn(C)c2c(=O)[nH]1
2. CCCOc1ccc(S(=O)(=O)N(CCCO)CCCOC(C)=O)cc1-c1nc2c(CCC)nn(C)c2c(=O)[nH]1
3. CCCOc1ccc(S(=O)(=O)N(CC)CCN2CCOCC2)cc1-c1nc2c(CC)nn(C)c2c(=O)[nH]1

## Result
1: 5.29; 2: 4.98; 3: 4.79

For each of the items listed, what is its pIC50?
1. CCCOc1ccc(S(=O)(=O)N(C)CCOC(C)=O)cc1-c1nc2c(CCC)nn(C)c2c(=O)[nH]1
2. CCCOc1ccc(S(=O)(=O)N(CCOCC)CCN2CCOCC2)cc1-c1nc2c(CCC)nn(C)c2c(=O)[nH]1
3. CCCOc1ccc(S(=O)(=O)N(CCCOC(C)=O)CCCOC(C)=O)cc1-c1nc2c(CCC)nn(C)c2c(=O)[nH]1
4. CCCOc1ccc(S(=O)(=O)N(CCN2CCOCC2)Cc2cccnc2)cc1-c1nc2c(CCC)nn(C)c2c(=O)[nH]1
5. CCCOc1ccc(S(=O)(=O)N(CCCOC)CCCOC(C)=O)cc1-c1nc2c(CCC)nn(C)c2c(=O)[nH]1

## Result
[4.52, 5.06, 5.22, 5.54, 4.69]
